// data source = PubChem BioAssay (NCI)

method_notes: NCI Yeast Anticancer Drug Screen. Data for the mlh1 rad18 strain (AID 175)
run_conditions: S. cerevisiae mlh1 rad18 strain growth inhibition; at 50.0 µM; hits give high values
About 79,000 compounds went through this panel and 15% of them were active in at least one assay; those are over-represented in the sample as a whole. Activity calls are given as the source filed them. Cut-off read from the data, not from the text of the source: active = growth inhibition above about 70%; inactive = the rest.
Entries and their measured growth inhibition follow.

>  <structure_smiles>
NC(=O)CCCc1ccc2oc3ccccc3c2c1

>  <growth inhibition>
35.4% (inactive)

$$$$
>  <structure_smiles>
CS(=O)(=O)OC[C@H](NC(=O)c1ccccc1)[C@H](COS(C)(=O)=O)NC(=O)c1ccccc1

>  <growth inhibition>
15.3% (inactive)

$$$$
>  <structure_smiles>
COc1ccc(NC(=O)C(=O)Cc2nc3ccc([N+](=O)[O-])cc3[nH]c2=O)c(OC)c1

>  <growth inhibition>
22.6% (inactive)

$$$$
>  <structure_smiles>
O=c1cn[nH]c(=O)[nH]1

>  <growth inhibition>
11.5% (inactive)

$$$$
